# EXPERIMENTAL SYSTEM: α-actinin-2 (human, UniProt P35609 1-894)
# Sequence (P35609 whole entry): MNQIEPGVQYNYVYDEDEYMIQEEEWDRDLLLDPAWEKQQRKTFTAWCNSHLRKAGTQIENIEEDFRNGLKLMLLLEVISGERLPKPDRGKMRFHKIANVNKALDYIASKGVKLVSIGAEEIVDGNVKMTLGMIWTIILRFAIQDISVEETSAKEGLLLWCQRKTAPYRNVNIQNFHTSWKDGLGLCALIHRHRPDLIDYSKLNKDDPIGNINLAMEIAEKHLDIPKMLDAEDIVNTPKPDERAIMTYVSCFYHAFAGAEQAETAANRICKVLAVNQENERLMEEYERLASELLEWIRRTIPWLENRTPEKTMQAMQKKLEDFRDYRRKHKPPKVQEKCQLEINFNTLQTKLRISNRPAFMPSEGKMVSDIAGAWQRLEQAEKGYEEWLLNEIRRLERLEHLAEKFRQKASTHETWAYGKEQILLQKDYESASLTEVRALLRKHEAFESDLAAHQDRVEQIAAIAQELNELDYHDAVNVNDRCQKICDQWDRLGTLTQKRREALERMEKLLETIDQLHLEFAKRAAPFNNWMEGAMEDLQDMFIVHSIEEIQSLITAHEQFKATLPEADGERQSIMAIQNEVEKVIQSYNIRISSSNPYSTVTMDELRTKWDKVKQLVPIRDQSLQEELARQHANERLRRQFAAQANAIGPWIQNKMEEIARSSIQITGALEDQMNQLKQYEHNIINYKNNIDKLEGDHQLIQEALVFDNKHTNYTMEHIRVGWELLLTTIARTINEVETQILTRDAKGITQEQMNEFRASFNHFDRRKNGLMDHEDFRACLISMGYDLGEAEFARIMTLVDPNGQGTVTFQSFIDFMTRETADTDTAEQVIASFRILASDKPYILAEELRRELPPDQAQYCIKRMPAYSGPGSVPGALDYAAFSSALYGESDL
# METHOD SUMMARY: SEC-MALS
QUANTITY KIND: stoichiometry N

Known results for binders:
Δ91-FATZ-1 (domain or fragment, human, UniProt Q9NP98 92-299, looked up) PTVGGQLGTAGQGFSYSKSNGRGGSQAGGSGSAGQYGSDQQHHLGSGSGAGGTGGPAGQAGRGGAAGTAGVGETGSGDQAGGEGKHITVFKTYISPWERAMGVDPQQKMELGIDLLAYGAKAELPKYKSFNRTAMPYGGYEKASKRMTFQMPKFDLGPLLSEPLVLYNQNLSNRPSFNRTPIPWLSSGEPVDYNVDIGIPLDGETEEL; 2 Δ91-FATZ-1 per α-actinin-2 dimer
FATZ-2 (natural protein, human, UniProt Q9NPC6 1-264, looked up) MLSHNTMMKQRKQQATAIMKEVHGNDVDGMDLGKKVSIPRDIMLEELSHLSNRGARLFKMRQRRSDKYTFENFQYQSRAQINHSIAMQNGKVDGSNLEGGSQQAPLTPPNTPDPRSPPNPDNIAPGYSGPLKEIPPEKFNTTAVPKYYQSPWEQAISNDPELLEALYPKLFKPEGKAELPDYRSFNRVATPFGGFEKASRMVKFKVPDFELLLLTDPRFMSFVNPLSGRRSFNRTPKGWISENIPIVITTEPTDDTTVPESEDL; 2 FATZ molecules per α-actinin-2 dimer
FATZ-1 (filamin-, α-actinin-, and telethonin-binding protein of the Z-disk) (natural protein, human, UniProt Q9NP98 1-299, looked up) MPLSGTPAPNKKRKSSKLIMELTGGGQESSGLNLGKKISVPRDVMLEELSLLTNRGSKMFKLRQMRVEKFIYENHPDVFSDSSMDHFQKFLPTVGGQLGTAGQGFSYSKSNGRGGSQAGGSGSAGQYGSDQQHHLGSGSGAGGTGGPAGQAGRGGAAGTAGVGETGSGDQAGGEGKHITVFKTYISPWERAMGVDPQQKMELGIDLLAYGAKAELPKYKSFNRTAMPYGGYEKASKRMTFQMPKFDLGPLLSEPLVLYNQNLSNRPSFNRTPIPWLSSGEPVDYNVDIGIPLDGETEEL; 2 FATZ molecules per α-actinin-2 dimer

Which stoichiometry N value is on record for FATZ-3 (natural protein, human, UniProt Q8TDC0 1-251, looked up) MIPKEQKGPVMAAMGDLTEPVPTLDLGKKLSVPQDLMMEELSLRNNRGSLLFQKRQRRVQKFTFELAASQRAMLAGSARRKVTGTAESGTVANANGPEGPNYRSELHIFPASPGASLGGPEGAHPAAAPAGCVPSPSALAPGYAEPLKGVPPEKFNHTAISKGYRCPWQEFVSYRDYQSDGRSHTPSPNDYRNFNKTPVPFGGPLVGGTFPRPGTPFIPEPLSGLELLRLRPSFNRVAQGWVRNLPESEEL ?
2 FATZ molecules per α-actinin-2 dimer

Origin of values: paper PMC8163081
